- targetOrTestSystem: rat PGT (Rattus norvegicus (Rat), UniProt Q00910)
- measurementNotes: [3H]PGE2 uptake inhibition in MDCK cells stably transfected with rat PGT (percent inhibition and IC50)
- runParameters: [3H]PGE2 uptake, MDCK cells stably transfected with rat PGT
metricName: IC50 (nM)

These solved cases illustrate the format of a correct answer.
INSERT INTO measurements (compound, targetortestsystem, unitofmeasurement, measurednumber) VALUES
  ('O=C(NCCOCCNc1nc(Nc2ccc(O)cc2)nc(Nc2ccc(C(=O)NCc3ccc(F)cc3)cc2)n1)c1ccccc1', 'rat PGT (Rattus norvegicus (Rat), UniProt Q00910)', 'nM', 31.7),
  ('O=C(NCCOCCOCCNc1nc(Nc2ccc(O)cc2)nc(Nc2ccc(C(=O)NCc3ccccc3)cc2)n1)c1ccccc1 [compound 83]', 'rat PGT (Rattus norvegicus (Rat), UniProt Q00910)', 'nM', 609),
  ('O=C(NCCOCCOCCNc1nc(Nc2ccc(O)cc2)nc(Nc2ccc(C(=O)NCc3ccc(Cl)cc3)cc2)n1)c1ccccc1', 'rat PGT (Rattus norvegicus (Rat), UniProt Q00910)', 'nM', 620),
  ('O=C(NCCOCCOCCNc1nc(Nc2ccc(C(=O)NCc3ccc(F)cc3)cc2)nc(Nc2ccc(O)c(C(=O)O)c2)n1)c1ccccc1', 'rat PGT (Rattus norvegicus (Rat), UniProt Q00910)', 'nM', 44.8),
  ('O=C(NCCOCCOCCNc1nc(Nc2ccccc2)nc(Nc2ccc(O)cc2)n1)c1ccccc1', 'rat PGT (Rattus norvegicus (Rat), UniProt Q00910)', 'nM', 4850);

P. O=C(NCCOCCOCCNc1nc(Nc2ccc(O)cc2)nc(Nc2ccc(C(=O)OCc3ccccc3)cc2)n1)c1ccccc1
Q. [N-]=[N+]=NCCOCCOCCNC(=O)c1ccc(Nc2nc(NCCOCCOCCNC(=O)c3ccccc3)nc(Nc3ccc(O)cc3)n2)cc1 [T26A, reference compound]
*Q* Compare IC50: is it lower for P or for Q ? Provide the label of your selected option as the answer.
*A* Q
(Q: 378 nM, P: 890 nM)
